- tested system: human recombinant PDE10A2 (Homo sapiens, UniProt Q9Y233)
- Construct: These compounds were tested against recombinant human full-length isoenzyme PDE10A; purchased Calbiochem 524739
- Sequence (Q9Y233 267-1055): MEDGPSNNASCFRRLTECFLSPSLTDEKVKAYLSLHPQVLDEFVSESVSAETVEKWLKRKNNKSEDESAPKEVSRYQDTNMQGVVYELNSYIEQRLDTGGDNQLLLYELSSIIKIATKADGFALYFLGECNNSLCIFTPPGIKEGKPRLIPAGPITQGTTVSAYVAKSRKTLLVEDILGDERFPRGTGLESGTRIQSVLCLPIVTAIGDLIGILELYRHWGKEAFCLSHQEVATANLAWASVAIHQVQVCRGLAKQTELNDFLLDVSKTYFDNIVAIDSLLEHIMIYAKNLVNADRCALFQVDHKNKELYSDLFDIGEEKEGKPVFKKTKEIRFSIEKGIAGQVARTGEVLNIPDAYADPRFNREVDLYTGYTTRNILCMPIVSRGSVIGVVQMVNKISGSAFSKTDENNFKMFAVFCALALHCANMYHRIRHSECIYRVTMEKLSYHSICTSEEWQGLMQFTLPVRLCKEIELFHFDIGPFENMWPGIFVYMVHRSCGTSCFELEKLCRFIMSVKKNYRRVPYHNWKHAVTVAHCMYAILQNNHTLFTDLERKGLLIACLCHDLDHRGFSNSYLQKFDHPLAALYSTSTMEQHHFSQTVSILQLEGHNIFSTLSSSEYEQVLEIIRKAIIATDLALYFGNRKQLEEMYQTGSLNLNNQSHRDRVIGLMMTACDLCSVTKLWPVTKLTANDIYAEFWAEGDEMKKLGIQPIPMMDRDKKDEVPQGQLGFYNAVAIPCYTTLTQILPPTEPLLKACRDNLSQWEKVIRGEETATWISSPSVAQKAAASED
- protocol details: Radiometric phosphodiesterase inhibition assay (SPA, [3H]cAMP)
- Type: biochemical
- condition context: fixed compound concentration of 10 µM; read-out: percentage of inhibition of PDE10A
attribute measured: inhibition at 10 µM (%)

Sample records with inhibition at 10 µM:
[
  {
    "given smiles": "O=Cc1nc(-c2ccc(Cl)cc2)ns1",
    "inhibition at 10 µM, %": 15
  },
  {
    "given smiles": "O=C(Cc1cccc(Cl)c1)Nc1nc2ccccc2s1",
    "inhibition at 10 µM, %": 44
  },
  {
    "given smiles": "O=S1(=O)N=C(O)c2cc(-c3ccccc3)sc2N1",
    "inhibition at 10 µM, %": 3
  },
  {
    "given smiles": "CC(=O)NNC(=O)c1c(O)n(C)c2ccccc2c1=O",
    "inhibition at 10 µM, %": 2
  },
  {
    "given smiles": "O=C(Cc1ccccc1)Sc1ncnc2[nH]cnc12",
    "inhibition at 10 µM, %": 40
  },
  {
    "given smiles": "Cc1ccc(-n2nc(C(C)(C)C)cc2N)cc1",
    "inhibition at 10 µM, %": 3
  }
]

(P) O=C(O)COC(=O)CNC(=O)c1ccccc1
(Q) CC(=O)C1=C(c2c(C)[nH]c3ccccc23)C(=O)NC1=O
Ask: Pick one: P or Q . Which has the bigger inhibition at 10 µM number? Answer format: the label of the selected item.
Result: Q
